Examples of compounds with documented EC50 follow.
molecular target: hNurr1_RXRαFL (NURR-1/RXRα heterodimer) (Homo sapiens, UniProt P19793); construct: hNurr1_RXRαFL; assay: Transactivation assay, NURR-1-Gal4/RXRα luciferase reporter in Cos-7 cells; conditions: Cos-7 cells, Gal4 luciferase reporter
Sequence (P43354 328-598): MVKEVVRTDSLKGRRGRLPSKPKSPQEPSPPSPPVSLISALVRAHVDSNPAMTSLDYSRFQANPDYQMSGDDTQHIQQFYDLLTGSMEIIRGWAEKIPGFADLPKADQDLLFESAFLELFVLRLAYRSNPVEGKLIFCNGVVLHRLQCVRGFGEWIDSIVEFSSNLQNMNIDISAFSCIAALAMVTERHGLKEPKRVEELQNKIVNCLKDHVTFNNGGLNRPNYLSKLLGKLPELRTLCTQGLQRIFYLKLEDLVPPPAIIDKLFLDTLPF
Sequence (P19793 whole entry, the tested form may be a part): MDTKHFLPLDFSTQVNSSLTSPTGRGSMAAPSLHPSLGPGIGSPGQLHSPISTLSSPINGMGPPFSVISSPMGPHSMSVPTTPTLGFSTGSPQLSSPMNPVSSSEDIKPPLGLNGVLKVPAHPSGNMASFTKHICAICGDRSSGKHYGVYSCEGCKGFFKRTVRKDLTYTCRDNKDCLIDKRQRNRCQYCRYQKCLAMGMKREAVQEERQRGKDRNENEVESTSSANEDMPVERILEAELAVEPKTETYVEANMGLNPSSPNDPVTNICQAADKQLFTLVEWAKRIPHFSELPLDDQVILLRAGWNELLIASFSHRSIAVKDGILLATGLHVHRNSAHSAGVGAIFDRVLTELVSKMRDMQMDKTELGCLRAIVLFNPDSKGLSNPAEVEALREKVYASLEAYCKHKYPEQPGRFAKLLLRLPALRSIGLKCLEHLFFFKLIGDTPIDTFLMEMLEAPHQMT
# output: bare number, implied unit nM

input-smiles | EC50 (nM)
CC(C)(C)c1cccc(S(=O)(=O)n2c(CCCCC(=O)O)cc3cc(C(F)(F)F)ccc32)c1 | 55
CC(C)c1cccc(S(=O)(=O)n2c(CCCC(=O)O)cc3cc(C(F)(F)F)ccc32)c1 | 73

Name the reported EC50 value associated with the compound "CC(C)(C)c1cccc(S(=O)(=O)n2c(CCCC(=O)O)cc3cc(C(F)(F)F)ccc32)c1"
26
